The reported measurements were obtained from the NIST ThermoML archive (doi:10.1007/s10765-016-2064-y).

assay: molar heat capacity at constant pressure; conditions: 318.15 K; 101.33 kPa; Liquid; Large sample (1 g) DSC
Threshold rule: molar heat capacity at constant pressure greater than or equal to 300 J/K/mol is fulfilled; below that, not fulfilled.

COMPOUND	LABEL
CCCCCCCCCCCBr [1-bromoundecane]	fulfilled
CCCCCCCBr [1-bromoheptane]	not fulfilled
CCCCCCCCCBr [1-bromononane]	fulfilled
CCCCCCBr [1-bromohexane]	not fulfilled
CCCCCCCCCCBr [1-bromodecane]	fulfilled
CCCCCCCCCCCCCCBr [1-tetradecyl bromide]	fulfilled
CCCCCCCCCCCCBr [1-bromododecane]	fulfilled
CCCCCCCCBr [1-bromooctane]	not fulfilled
